FYI, the data here is from PubChem BioAssay AID1159580.

procedure details: chemical genetic growth profiling, strain panel (AID 1159580);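 also: tested at 20 µM; growth read once vehicle control cultures reached saturation at 30 °C; 1 = growth at the plate median or of vehicle wells; lower values mean less growth of the strain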
condition summary: S. cerevisiae deletion strains, growth OD, locus YLR221C, strain rsa3, active compounds read low
In all, about 5,500 compounds went through this assay and about 2,000 (36%) were called active. Inconclusive results (about 18%) are left out. Some of the results follow.
readout name: normalized growth
Would you mind answering with just the numeric figure?

Can you share its normalized growth? I mean this molecule: CC(=O)O[C@H]1CC2CCC3C(CC[C@@]4(C)C3C[C@H]([N+]3(C)CCCCC3)[C@@H]4OC(C)=O)[C@@]2(C)C[C@@H]1[N+]1(C)CCCCC1 (stereo not given in full)
1.01

Consider next the molecule CCCCC(=O)O[C@H]1CCC2C3CCc4cc(O)ccc4C3CC[C@@]21C (stereo not given in full) in the same way.
0.995

And then O=C(O)c1cccc(O)c1O , what is it?
1.01

Continue with C[C@H]1C(=O)O[C@@H]2CCN3CC=C(COC(=O)[C@](C)(O)[C@]1(C)O)[C@H]23
1.01

Please answer likewise for C[N+]1(C)CCc2cc3c(cc2[C@H]1C1OC(=O)c2c1ccc1c2OCO1)OCO3 (stereo not given in full)
1.03

* * *

procedure details: chemical genetic growth profiling, strain panel (AID 1159580)
condition summary: S. cerevisiae deletion strains, growth OD, locus YNL153C, strain GIM3
Among all 5,500 compounds or so, about 2,000 (36%) were called active. About 18% were inconclusive and are not listed. No stated cut-off is given here; in the data, active means normalized growth mostly below about 0.91 (no sharp cut-off); inconclusive means no clear call, values can overlap the other calls; inactive means mostly above about 0.92. The list shows a part of the results.
Bench note: report the call from active, inactive

Lab log entry: Nc1ncnc2c1ncn2[C@@H]1O[C@H](CO)[C@@H](O)[C@@H]1O — outcome as called in the assay?
inactive

Let us now turn to CC(=O)/C(=C\N(C)C)Sc1ccc(Cl)cc1
active

Another compound: O=C(OC1CCN(CCCl)CC1)C(c1ccccc1)c1ccccc1
inactive

Moving on to O=c1[nH]c2ccccc2n1C1CCN(CCCC(c2ccc(F)cc2)c2ccc(F)cc2)CC1
inactive

Query O=C(O)c1cc2cc(Cl)ccc2[nH]1 next
inactive

Consider next the compound COc1cc(OC)cc(OC)c1 in the same way.
inactive

* * *

procedure details: chemical genetic growth profiling, strain panel (AID 1159580)
condition summary: S. cerevisiae deletion strains, growth OD, locus YOR231W, strain MKK1, active compounds read low
Screen size: about 5,500 compounds; about 2,000 (36%) were called active. Another 18% or so got no clear call; they are omitted. The list shows a part of the results.
readout name: normalized growth
Please state the value as a number alone, without comment.

Would you kindly share the measured normalized growth for N#C/C(=C\c1ccc(C(F)(F)F)cc1)c1ccc(O)cc1 ?
0.469

Same lookup for S=C(NCc1ccco1)Nc1ccc(Oc2ccc(Cl)cc2)cc1 , please.
0.944

Then what about the compound COc1ccc(/C(C#N)=C2C=C/C(=N/O)C(Cl)=C\2)cc1 ?
0.905

Now the compound CC(C(=O)O)c1ccc(N2Cc3ccccc3C2=O)cc1 (centres undefined)
0.973

Item: CCN(CC)CCNC(=O)COc1ccc(OC)cc1
0.964

CC(=O)OC1CCC23C(=O)OC45CCC(C6=CC(=O)OC6)C4(C)CCC2C5CCC3(O)C1 (centres undefined) ?
0.976

What do you get for CC(C)=CCOc1cc2oc(=O)ccc2cc1O ?
0.924

Next up: CC(C)(CO)[C@@H](O)C(=O)NCCC(=O)O
1.09

Another compound: N#C/C(=C\c1ccc(O)cc1)C(=O)O
1.04

Also, CCOC(=O)C(O)(c1ccc(NC(=O)Nc2ccc(Cl)cc2)cc1)C(F)(F)F (centres undefined) please.
0.986

Now consider CCOC(=O)C1C(c2ccc(Br)cc2)C(C(=O)OCC)C(O)(C(F)(F)F)NC1(O)C(F)(F)F (centres undefined) .
0.984

Same question, C[C@]12CCC3C(CC[C@H]4C[C@@H](O)CC[C@]34C)C1CCC2=O (some centres undefined) this time
0.888

Then COC(=O)C[C@H]1C(C)(C)[C@@H](OC(C)=O)[C@@H]2CC3C4CC(=O)O[C@@H](c5ccoc5)[C@]4(C)CCC3[C@@]1(C)C2=O (some centres undefined) ?
1.01

How about Cc1nc([N+](=O)[O-])cn1CC(=O)c1ccc(Cl)cc1 ?
1

And CC(C)N=c1cc2n(-c3ccc(Cl)cc3)c3ccccc3nc-2cc1Nc1ccc(Cl)cc1 ?
0.831

Thanks! And CC(Oc1ccc(Cl)cc1Cl)C(=O)NNC(=S)Nc1ccccc1 (centres undefined) ?
0.993

Please do the same for CC(C)=CCC/C(C)=C/COc1ccc2ccc(=O)oc2c1 as well.
0.968

Can you handle Cc1ncc([N+](=O)[O-])n1CCO next?
1.06

Consider next the compound COc1cc2ccc(=O)oc2cc1O in the same way.
0.976

* * *

Give normalized growth for every item shown.
procedure details: chemical genetic growth profiling, strain panel (AID 1159580);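 also: tested at 20 µM; growth read once vehicle control cultures reached saturation at 30 °C; 1 = growth at the plate median or of vehicle wells; lower values mean less growth of the strain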
condition summary: S. cerevisiae deletion strains, growth OD, locus YLR102C, strain apc9, active compounds read low
The whole screen tested about 5,500 compounds, of which about 2,000 (36%) were called active. About 18% were inconclusive and are not listed. The list shows a part of the results.
Form field (numeric): enter value without unit.

I have this molecule here, N#C/C(=C\c1ccc(O)cc1)C(=O)O , and I need its recorded normalized growth.
0.988

Another molecule: Cn1c(=O)[nH]c(=O)c2[nH]cnc21
0.972

And the next one, O=C(O)c1cc2cc(Cl)ccc2[nH]1 ?
0.98

Then what about the molecule CC(C)=CCC1=C(O)c2ccccc2C(=O)C1=O ?
0.963

Field entry: CNC(=O)CSP(=S)(OC)OC
1.02

Repeat with CCNc1nc(Cl)nc(NC(C)C)n1
1.02

Now the molecule NCCS
1.01

Same read-out for C[C@H]1C(=O)O[C@@H]2CCN3CC=C(COC(=O)[C@](C)(O)[C@]1(C)O)[C@H]23 ?
0.988

Queued: C[N+]1(C)C2CC[C@H]1CC(OC(=O)C(O)c1ccccc1)C2 (some centres not stated)
1.02

// query: COc1cc(OC)c(-c2c(OC)cc(OC)cc2OC)c(OC)c1
1.01

Another molecule to check: C[C@]12CCC3C(CC[C@H]4CC(=O)CC[C@]34C)C1CCC2=O (some centres not stated)
0.992

Then this molecule: C[C@]12CCC3c4ccc(O)cc4CCC3C1CC[C@@H]2OC(=O)CCC1CCCC1 (some centres not stated)
1.01

* * *

procedure details: chemical genetic growth profiling, strain panel (AID 1159580);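 also: tested at 20 µM; growth read once vehicle control cultures reached saturation at 30 °C; 1 = growth at the plate median or of vehicle wells; lower values mean less growth of the strain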
condition summary: S. cerevisiae deletion strains, growth OD, locus YGL167C, strain pmr1, active compounds read low
The whole screen tested about 5,500 compounds, of which about 2,000 (36%) were called active. Not shown: some 18% with an inconclusive outcome. This is one part of the list.
readout name: normalized growth

What does the data say about its normalized growth? Entry: CC(=O)O[C@H]1CC2CCC3C(CC[C@@]4(C)C3C[C@H]([N+]3(C)CCCCC3)[C@@H]4OC(C)=O)[C@@]2(C)C[C@@H]1[N+]1(C)CCCCC1 (some centres not stated)
1.02 (inactive)

Can you check NCCS next?
0.982 (inactive)

// next record CN(C)c1nc(N(C)C)nc(N(C)C)n1
0.975 (inactive)

Also CC(=O)Oc1ccc2c(c1)CCC1C2CCC2(C)C1CC(OC(C)=O)C2OC(C)=O (configuration not stated) , if possible.
0.98 (inactive)

Quick one: O=C1c2ccccc2-c2cccc3cccc1c23
0.97 (inactive)

Could you do the same for CNC(=O)CSP(=S)(OC)OC , please?
1.02 (inactive)

Lookup C=C(C)c1cc2cc(C(C)=O)c(O)cc2o1
0.956 (inactive)

Then Nc1ncnc2c1ncn2[C@@H]1O[C@H](CO)[C@@H](O)[C@@H]1O ?
1.02 (inactive)

Another: COP(=S)(OC)SCn1nnc2ccccc2c1=O
0.992 (inactive)

Next molecule up: CCCc1nc(C(C)(C)O)c(C(=O)OCc2oc(=O)oc2C)n1Cc1ccc(-c2ccccc2-c2nn[nH]n2)cc1
0.957 (inactive)

Moving on to the next molecule: CC(=O)OC1CCC2C3CCc4cc(O)ccc4C3CCC12C (configuration not stated)
0.999 (inactive)

How about this molecule: Cc1nccc2c1[nH]c1ccccc12
0.996 (inactive)

* * *

procedure details: chemical genetic growth profiling, strain panel (AID 1159580);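 also: tested at 20 µM; growth read once vehicle control cultures reached saturation at 30 °C; 1 = growth at the plate median or of vehicle wells; lower values mean less growth of the strain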
condition summary: S. cerevisiae deletion strains, growth OD, locus YKL067W, strain YNK1, active compounds read low
Out of some 5,500 compounds screened, about 2,000 (36%) were called active. About 18% were inconclusive and are not listed. This is one part of the list.
Please use 1 (yes) for normalized growth under 0.9 and 0 (no) for everything else, ties included.

Bench note: check whether O=S(=O)(Nc1ccc(-n2nc(C(F)(F)F)cc2-c2cccs2)cc1)c1ccc(F)cc1 shows normalized growth below 0.9
0 (no)

Another compound to look at: CN(C)c1nc(=S)ss1
1 (yes)

Okay, and CCCCCc1ccc(S(=O)(=O)Nc2ncc(C)cc2Br)cc1 ?
1 (yes)

Then what about the compound CCOC(=O)C1C(c2ccc(Br)cc2)C(C(=O)OCC)C(O)(C(F)(F)F)NC1(O)C(F)(F)F (stereo not drawn) ?
0 (no)

Cool, now Fc1ccc(Nc2nc(-c3ccc(F)c(F)c3)cs2)c(F)c1
1 (yes)

Proceed to N#Cc1c(N)sc2c1CCc1ccccc1-2
1 (yes)
